- TGT: Cannabinoid receptor 2 (Homo sapiens, UniProt P34972)
- Sequence (P34972 whole entry): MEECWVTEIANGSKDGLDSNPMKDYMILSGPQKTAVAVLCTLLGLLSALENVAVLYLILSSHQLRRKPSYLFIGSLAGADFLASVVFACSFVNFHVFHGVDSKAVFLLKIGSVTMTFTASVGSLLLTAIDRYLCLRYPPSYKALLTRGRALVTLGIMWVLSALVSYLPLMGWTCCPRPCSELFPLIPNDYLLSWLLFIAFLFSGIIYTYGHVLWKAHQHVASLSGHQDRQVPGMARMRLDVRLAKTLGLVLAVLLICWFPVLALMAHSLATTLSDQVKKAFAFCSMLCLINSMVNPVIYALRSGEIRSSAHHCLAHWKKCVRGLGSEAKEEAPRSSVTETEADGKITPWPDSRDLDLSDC
EXPERIMENTAL_READOUT: Ki (nM)
Number in nM, nothing else.

Bench note, Cannabinoid receptor 2 (Homo sapiens, UniProt P34972): FC(F)(F)c1cccc(-c2c[nH]c(-c3cccc(CN4CCOCC4)c3)n2)c1 , Ki reads 42

---

- TGT: UniProtKB P34972
- ASSAY_EXPLANATION: Agonist activity at human cloned CB2 receptor expressed in CHO cells assessed as inhibition of forskolin-induced cAMP accumulation
Param label: returns Y when EC50 < 10 nM, returns N otherwise, including exact equality.

Some solved cases for reference:
COc1ccc(F)c(-c2c[nH]c(-c3cccc(CN4CCC(F)CC4)c3)n2)c1 Y
FC(F)(F)c1cccc(-c2cn(-c3ccccc3)c(-c3cccc(CN4CCOCC4)c3)n2)c1 N
FC1(F)CCCN(Cc2cccc(-c3nc(-c4cccc(C(F)(F)F)c4)c[nH]3)c2)C1 N

Q: Would you kindly verify if EC50 of FC1CCN(Cc2cccc(-c3nc(-c4cccc(Cl)c4Cl)c[nH]3)c2)CC1 is strictly less than 10 nM?
Ans: Y

Q: Would you kindly verify if EC50 of FC(F)(F)c1cccc(-c2c[nH]c(-c3cccc(CN4CCCCC4)c3)n2)c1 is strictly less than 10 nM?
Ans: N

Q: Would you kindly verify if EC50 of O[C@H]1CCCN(Cc2cccc(-c3nc(-c4cccc(C(F)(F)F)c4)c[nH]3)c2)C1 is strictly less than 10 nM?
Ans: N

Q: Would you kindly verify if EC50 of FC(F)(F)c1cccc(-c2c[nH]c(-c3cccc(CN4CCOCC4)c3)n2)c1 is strictly less than 10 nM?
Ans: Y

Data provenance: ChEMBL document CHEMBL1641542
